Data origin: PubChem BioAssay

ASSAY_TARGET: Homeobox protein Hox-A13 (Mus musculus)
ASSAY_SUMMARY: inhibitors of HoxA13-DNA binding, primary screen, biochemical, fluorescence polarization, labeled oligonucleotide (AID 1185)
CONDITIONS_USED: 15 min, higher = more signal, called active from +8 up or from −8 down
Recorded z-score for the following molecules
Format: numeric value only, no unit, no commentary.

Field: example entries. Status: answers known.
C[n+]1ccc(CCCO)cc1
-2.17
CN(C)C(=O)[C@@]1(Cc2ccccc2N=[N+]=[N-])COC(c2ccc(OCCCO)cc2)=N1
-5.84
COCCOC(=O)N1C(=O)[C@@]2(c3cc(C#Cc4ccc(OC)cc4)ccc31)[C@H](C(=O)NC[C@H](O)c1ccccc1)[C@H]1C(=O)O[C@H](c3ccccc3)[C@H](c3ccccc3)N1[C@@H]2c1ccc(O)cc1
-1.78
O=C(CCCCCCC(=O)Nc1ccccc1)N/N=C/c1ccccc1
0.458
COc1ccc(C(O)C2C=CC3C(=O)N(C)C(=O)C3N2N2CCCCC2)cc1 (stereo not drawn)
-4.16
COCCOC(=O)N1C(=O)[C@@]2(c3cc(C#CC4(O)CCCCCC4)ccc31)[C@H](C(N)=O)[C@H]1C(=O)O[C@H](c3ccccc3)[C@H](c3ccccc3)N1[C@@H]2c1ccccc1OCCO
-1.56

Inquiry: Assign z-score to the following record: Cc1c(NC(=O)/C(C#N)=C/C=C/c2ccccc2[N+](=O)[O-])c(=O)n(-c2ccccc2)n1C
Reply text: -3.54

Inquiry: Assign z-score to the following record: O=C(CS)NCCCCCCNC(=O)[C@@H]1C[C@@H]2C(=O)N3CCC[C@H]3C(=O)N2[C@@H]1c1cccc(OCCO)c1
Reply text: -3.25

====

Recorded composite z-score for the following molecules
Tested on: Sam68 (KHDRBS1)
ASSAY_SUMMARY: Sam68 small-molecule binders, primary screen, biochemical, small-molecule microarray, 635 nm fluorescence (AID 1125);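 note: score merges 667 nm channel intensity with signal to noise over triplicate slides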
CONDITIONS_USED: small-molecule microarray binding, higher = more signal

Field: example entries. Status: answers known.
CO[C@H]1O[C@H](CO)[C@@H](OC(=O)Nc2ccccc2-c2ccccc2)[C@H](OC(=O)Nc2ccc3c(c2)OCO3)[C@@H]1OC(=O)Nc1ccc2c(c1)OCO2
1.3
COc1ccccc1CN1C(=O)c2ccccc2[C@](Cc2ccccc2I)(C(=O)NC(C)C)[C@@H]1c1ccc(CO)cc1
1.3
CC(=O)n1cc(C(O)C2C=CC3C(=O)N(c4ccccc4)C(=O)C3N2Nc2ccccc2)c2ccccc21 (stereo unspecified)
0.897

Inquiry: Given CC1CC/C=C\[C@H]2OC34C=CCN(C(C)C)C(=O)[C@H]3N(CCCCCO)C(=O)[C@@H]4C2C(=O)O1 (stereo partly specified) , report its composite z-score on Sam68 (KHDRBS1).
Reply text: -0.925

Inquiry: Given CC(C)C(O)C1C=CC2C(=O)N(C)C(=O)C2N1N(c1ccccc1)c1ccccc1 (stereo unspecified) , report its composite z-score on Sam68 (KHDRBS1).
Reply text: -0.797

Inquiry: Given COc1ccc(C(O)C2C=CC3C(=O)N(C)C(=O)C3N2N2CCCCC2)cc1 (stereo unspecified) , report its composite z-score on Sam68 (KHDRBS1).
Reply text: 1.1

====

Recorded z-score for the following molecules
ASSAY_SUMMARY: S. cerevisiae growth modulation with rapamycin, primary screen, strain BY4716, OD600, 96 h (AID 1091); note: test concentration not given here
CONDITIONS_USED: higher = more signal, called active from +8 up or from −8 down
Format: numeric value only, no unit, no commentary.

C[C@H]1C2=C3C(CC[C@H]4C(OCc5ccc(F)cc5C(F)(F)F)OC[C@](C)([C@@H]34)N(C(=O)OC(C)(C)C)C2)C(CO)C1CO (some centres undefined)
0.0345

Inquiry: Assign z-score to the following record: C[C@]1(C(=O)NCCN2CCOCC2)c2ccccc2C(=O)N(Cc2ccc(OC(F)(F)F)cc2)[C@H]1c1ccc(CO)cc1
Reply text: -0.854

Inquiry: Assign z-score to the following record: COCCOC(=O)N1C(=O)[C@@]2(c3ccccc31)[C@H](c1ccc(OCCO)cc1)N1[C@H](c3ccccc3)[C@H](c3ccccc3)OC(=O)[C@H]1[C@@H]2C(=O)Nc1nc2ccccc2s1
Reply text: 2.33

Inquiry: Assign z-score to the following record: COCCCNC(=O)[C@]1(CCC(=O)OC(C)(C)C)N=C(c2ccc(OCCCO)cc2)O[C@@H]1c1ccccc1
Reply text: -0.302
